# measured-target: Relipidated TF (Tissue Factor) (UniProt P13726 33-295, limits assumed)
# experimental-protocol: cell-based or functional assay
measured-property: % ttPeak, Ab 10 nM (%)
Entry rule: numbers only, all in %.

// query Quick one: % ttPeak, Ab 10 nM of TF-011 (antibody, V domains shown) VH: EVQLLESGGGLVQPGGSLRLSCAASGFTFSNYAMSWVRQAPGKGLEWVSSISGSGDYTYYTDSVKGRFTISRDNSKNTLYLQMNSLRAEDTAVYYCARSPWGYYLDSWGQGTLVTVSS VL: DIQMTQSPPSLSASAGDRVTITCRASQGISSRLAWYQQKPEKAPKSLIYAASSLQSGVPSRFSGSGSGTDFTLTISSLQPEDFATYYCQQYNSYPYTFGQGTKLEIK ?
// result 86
